Values from patent US11034672B1

SYSTEM TESTED: EGFR V3 (Homo sapiens, UniProt P00533, DELINS30-297G)
Construct: expressed in transfected cells; host or cells: BaF3 (murine pro-B), retroviral pMXs-IRES-Blasticidin
Sequence (P00533 with tags, fused parts or gaps DELINS30-297G): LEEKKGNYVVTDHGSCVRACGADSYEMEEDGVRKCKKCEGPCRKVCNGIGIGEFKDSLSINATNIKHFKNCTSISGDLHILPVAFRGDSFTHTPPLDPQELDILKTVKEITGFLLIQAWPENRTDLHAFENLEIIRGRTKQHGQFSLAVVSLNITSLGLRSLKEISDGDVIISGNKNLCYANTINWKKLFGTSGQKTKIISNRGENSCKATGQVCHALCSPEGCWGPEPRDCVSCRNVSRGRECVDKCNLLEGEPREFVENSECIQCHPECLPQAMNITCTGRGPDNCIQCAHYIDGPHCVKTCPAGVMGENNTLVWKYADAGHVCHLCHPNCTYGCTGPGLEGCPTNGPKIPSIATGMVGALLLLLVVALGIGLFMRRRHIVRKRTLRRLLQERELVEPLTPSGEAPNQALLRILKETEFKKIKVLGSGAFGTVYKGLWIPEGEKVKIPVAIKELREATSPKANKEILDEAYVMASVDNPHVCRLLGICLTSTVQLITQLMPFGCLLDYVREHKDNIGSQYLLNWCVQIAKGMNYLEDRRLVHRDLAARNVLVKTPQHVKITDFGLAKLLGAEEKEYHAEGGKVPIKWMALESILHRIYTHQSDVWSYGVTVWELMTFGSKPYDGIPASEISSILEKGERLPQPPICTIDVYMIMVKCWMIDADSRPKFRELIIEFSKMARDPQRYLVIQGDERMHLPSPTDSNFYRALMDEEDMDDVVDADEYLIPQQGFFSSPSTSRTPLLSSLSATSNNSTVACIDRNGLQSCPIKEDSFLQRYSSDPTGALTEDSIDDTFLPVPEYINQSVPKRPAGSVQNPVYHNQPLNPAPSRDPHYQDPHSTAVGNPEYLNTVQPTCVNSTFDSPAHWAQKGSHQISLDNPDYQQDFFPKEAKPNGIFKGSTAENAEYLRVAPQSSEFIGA
EXPERIMENT SUMMARY: BaF3 cell proliferation assay, EGFR V3 (Table A)
Format: cell-based
CONDITION NOTES: potency code, 3 days, CellTiterGlo, read-out: EGFR V3 (Activity for Inhibiting EGFR)
pIC50: −log10 of the molar value.
MEASURE NAME: pIC50

Examples with answers:
Could you tell me which pIC50 is on file for C=CC(=O)Nc1cc2c(Nc3cc(Cl)c(OCc4cccc(F)c4)cc3F)ncnc2cc1OCCN1CCOCC1 ?
7.52 to 7.70

Reported pIC50, molecule C=CC(=O)Nc1cc2c(Nc3ccc(Oc4ccc(C)nc4)c(C)c3)ncnc2cc1C#CC(C)(C)N(C)C : ____
6.30 to 6.52

Request the reported pIC50 associated with C=CC(=O)Nc1cc2c(Nc3ccc(OCc4ccccn4)c(Cl)c3)ncnc2cc1OC[C@H]1COCCN1
7.30 to 7.52

What does the data say about its pIC50? Entry: C=CC(=O)Nc1cc2c(Nc3ccc(OCc4ccccn4)c(Cl)c3)ncnc2cc1OCCN1C2CCC1COC2
7.30 to 7.52

Which pIC50 is listed for C=CC(=O)Nc1cc2c(Nc3ccc(OCc4ccccn4)c(Cl)c3)ncnc2cc1C#C[C@@H]1CCCN1C ?
6.70 to 7.00

As a next step, examine the molecule that follows.
Item under review: C=CC(=O)Nc1cc2c(Nc3ccc(OCc4cccc(F)n4)c(Cl)c3)ncnc2cc1OCCCN1C[C@H]2C[C@@H]1CO2 . Reported pIC50?
7.30 to 7.52

###

Consider the following compounds and their measured pIC50 readings.
SYSTEM TESTED: EGFR V3 (Homo sapiens, UniProt P00533, DELINS30-297G)
Construct: expressed in transfected cells; host or cells: BaF3 (murine pro-B), retroviral pMXs-IRES-Blasticidin
EXPERIMENT SUMMARY: BaF3 cell proliferation assay, EGFR V3 (Table A)
Assay type: cell-based
CONDITION NOTES: potency code, 3 days, CellTiterGlo, read-out: EGFR V3 (Activity for Inhibiting EGFR)
Experimental: Retroviral Production: EGFR mutants were subcloned into pMXs-IRES-Blasticidin (RTV-016, Cell Biolabs, San Diego, Calif.). Retroviral expression vector retrovirus was produced by transient transfection of HEK 293T cells with the retroviral EGFR mutant expression vector pMXs-IRES-Blasticidin (RTV-016, Cell Biolabs), pCMV-Gag-Pol vector and pCMV-VSV-G-Envelope vector. […] EC50 values were determined with the same application.
pIC50: −log10 of the molar value.

// pIC50 lookup, key: C=CC(=O)Nc1cc2c(Nc3ccc(OCc4ccccn4)c(Cl)c3)ncnc2cc1O[C@@H]1CCN(C)C1 [compound 17]
7.70 to 8.00

Consider the compound shown here: C=CC(=O)Nc1cc2c(Nc3ccc(OCc4ccccn4)c(Cl)c3)ncnc2cc1C#C[C@H]1CCNC1 [compound 86] What is its recorded pIC50?
6.70 to 7.00

# ---- query compound ----
So what's the measured pIC50 for this one? C=CC(=O)Nc1cc2c(Nc3ccc(OCc4ccccn4)c(Cl)c3)ncnc2cc1N1CC2(CN(C)C2)C1 [compound 45]
6.52 to 6.70
